Reference source: patent US20170088602A1

Measured ARE-luciferase IC50, listed per entry for reference.
targetUnderTest: T1, human BMP-11 (GDF-11; R&D Systems) (human, UniProt O95390 299-407)
T1 sequence (looked up): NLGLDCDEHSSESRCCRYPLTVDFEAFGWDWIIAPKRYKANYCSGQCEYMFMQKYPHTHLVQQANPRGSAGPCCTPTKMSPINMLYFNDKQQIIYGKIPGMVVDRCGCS
measurementProtocol: cell-based or functional assay
Provide the measurement as a number trailed by its unit.

- 3006_A10 (designed binder) MGVSDVPRDLEVVAATPTSLLISWDAPGGLARYYRITYGETGGNSPVQEFTVIGRGSTATISGLKPGVDYTITVYAVTIDRDGVNHFAPISINYRTEIDKPSQHHHHHH: 2 nM
- 2987_B04 (designed binder) MGVSDVPRDLEVVAATPTSLLISWSLPYPGHLNYYRITYGETGGNSPVQEFTVPGRGVTATISGLKPGVDYTITVYAVTLTKSKIIHYMPISINYRTEIDKPSQHHHHHH: 3.3 nM
- 2525_B01 (designed binder) MGVSDVPRDLEVVAATPTSLLISWTLPNFGLINYYRITYGETGGNSPVQEFTVPGRGVTATISGLKPGVDYTITVYAVTITKSTIIIYKPISINYRTEIDKPSQHHHHHH: 3.2 nM
- 3116_C01 (designed binder) MGVSDVPRDLEVVAATPTSLLISWSLPNPGIAHYYRITYGETGGNSPVQEFTVPGRGVTATISGLKPGVDYTITVYAVTLTGSDTIFYKPISINYRTEIDKPSQHHHHHH: 6.7 nM
- 2524_E10 (designed binder) MGVSDVPRDLEVVAATPTSLLISWSLPFAGHLNYYRITYGETGGNSPVQEFTVPGRGVTATISGLKPGVDYTITVYAVTLTRSKIIHYMPISINYRTEIDKPSQHHHHHH: 5.6 nM

(Q) What measured ARE-luciferase IC50 goes with 2524_D09 (designed binder) MGVSDVPRDLEVVAATPTSLLISWYLPYPAHMNYYRITYGETGGNSPVQEFTVPGRGLTATISGLKPGVDYTITVYAVTLTKSQILHHRPISINYRTEIDKPSQHHHHHH ?
(A) 0.55 nM

(Q) What measured ARE-luciferase IC50 goes with 3008_D04 (designed binder) MGVSDVPRDLEVVAATPTSLLISWSLPHNGVAHYYRITYGETGGNSPVQEFTVPGRGVTATISGLKPGVDYTITVYAVTVTREEVISYKPISINYRTEIDKPSQHHHHHH ?
(A) 1.2 nM

(Q) What measured ARE-luciferase IC50 goes with 3115_E06 (designed binder) MGVSDVPRDLEVVAATPTSLLISWDAPAGLARYYRITYGETGGNSPVQEFTVVGRGNTATISGLKPGVDYTITVYAVTIFRDGPVTWDPISINYRTEIDKPSQHHHHHH ?
(A) 2 nM

(Q) What measured ARE-luciferase IC50 goes with 3008_B08 (designed binder) MGVSDVPRDLEVVAATPTSLLISWSLPHAGDAHYYRITYGETGGNSPVQEFTVPGRGVTATISGLKPGVDYTITVYAVTVTRAGFYRYKPISINYRTEIDKPSQHHHHHH ?
(A) 9.3 nM

(Q) What measured ARE-luciferase IC50 goes with ATI-1340 [N-ethylmaleimide] (designed binder, N-ethylmaleimide on the Cys of the EGSGC tail, cysteine mutant of 2987_H07) MGVSDVPRDLEVVAATPTSLLISWTLPHAGRAHYYRITYGETGGNSPVQEFTVPGRGVTATISGLKPGVDYTITVYAVTVTTTKVIHYKPISINYRTEGSGCHHHHHH ?
(A) 4.87 nM

(Q) What measured ARE-luciferase IC50 goes with 2987_E03 (designed binder) MGVSDVPRDLEVVAATPTSLLISWSLPYPGHLNYYRITYGETGGNSPVQEFTVPGRGVTATISGLKPGVDYTITVYAVTLTRSKIIHYMPISINYRTEIDKPSQHHHHHH ?
(A) 2.3 nM

(Q) What measured ARE-luciferase IC50 goes with 1979_B06 (designed binder, monoAdnectin with His6 tag; also called ATI-1133) MGVSDVPRDLEVVAATPTSLLISWSLPHAGHVNYYRITYGETGGNSPVQEFTVPGRGVTATISGLKPGVDYTITVYAVTLTKSQMIHYMPISINYRTEIDKPSQHHHHHH ?
(A) 3.3 nM

(Q) What measured ARE-luciferase IC50 goes with 2525_D05 (designed binder) MGVSDVPRDLEVVAATPTSLLISWSLPYAGHLNYYRITYGETGGNSPVQEFTVPGRGVTATISGLKPGVDYTITVYAVTLTKSQLIHYMPISINYRTEIDKPSQHHHHHH ?
(A) 3.9 nM

(Q) What measured ARE-luciferase IC50 goes with 2987_F01 (designed binder) MGVSDVPRDLEVVAATPTSLLISWSLPYAGHAHYYRITYGETGGNSPVQEFTVPGRGVTATISGLKPGVDYTITVYAVTLTRSKIIHYMPISINYRTEIDKPSQHHHHHH ?
(A) 6.5 nM

(Q) What measured ARE-luciferase IC50 goes with 2062_G02 (designed binder, also called ATI-1134) MGVSDVPRDLEVVAATPTSLLISWVSPRGRARYYRITYGETGGNSPVQEFTVPGRGSTATISGLKPGVDYTITVYAVTIYRDGMSHHDPISINYRTEIDKPSQHHHHHH ?
(A) 1500 nM

(Q) What measured ARE-luciferase IC50 goes with 2987_H02 (designed binder) MGVSDVPRDLEVVAATPTSLLISWSLPYAGHAHYYRITYGETGGNSPVQEFTVPGRGVTATISGLKPGVDYTITVYAVTLTKSKVIHYMPISINYRTEIDKPSQHHHHHH ?
(A) 11 nM
